Below is a list of entries, each paired with its recorded CC50 value.
Assay: Cytotoxicity (Huh-7)
Format: cell-based
Conditions: human, Huh-7 cells

Some compounds with recorded CC50:
[
  {
    "COMPOUND": "O=C(c1ccccn1)N1CCC[C@H]1c1nc(-c2cccc(Oc3ccc(-c4cnc([C@@H]5CCCN5C(=O)c5ccccn5)[nH]4)cc3)c2)c[nH]1",
    "METRIC": "CC50",
    "RESULT": "> 31.5 µM"
  },
  {
    "COMPOUND": "Cc1nc(C(=O)N2CCC[C@H]2c2nc(-c3cccc(Oc4ccc(-c5cnc([C@@H]6CCCN6C(=O)c6nc(C)oc6C)[nH]5)cc4)c3)c[nH]2)c(C)o1",
    "METRIC": "CC50",
    "RESULT": "> 31.5 µM"
  }
]

# input // CC50 lookup, key: `O=C(CC1CCCCC1)N1CCC[C@H]1c1nc(-c2cccc(Oc3ccc(-c4cnc([C@@H]5CCCN5C(=O)CC5CCCCC5)[nH]4)cc3)c2)c[nH]1`
# output > 31.5 µM

###

Below is a list of entries, each paired with its recorded CC50 value.
Assay: Cytotoxicity (Huh-7)
Assay type: cell-based
Settings: human, Huh-7 cells

Some compounds with recorded CC50:
[
  {
    "COMPOUND": "COC(=O)N[C@H](C(=O)N1CCC[C@H]1c1ncc(-c2ccc(Oc3cccc(-c4cnc([C@@H]5CCCN5C(=O)[C@@H](NC(=O)OC)[C@@H](C)OC)[nH]4)c3)cc2)[nH]1)[C@@H](C)OC",
    "CC50": "> 31.5 µM"
  },
  {
    "COMPOUND": "O=C(CCS(=O)(=O)c1ccccc1)N1CCC[C@H]1c1nc(-c2cccc(Oc3ccc(-c4cnc([C@@H]5CCCN5C(=O)CCS(=O)(=O)c5ccccc5)[nH]4)cc3)c2)c[nH]1",
    "CC50": "> 31.5 µM"
  }
]

# input // CC50 lookup, key: COC(=O)NC(C(=O)N1CCC[C@H]1c1nc(-c2ccc(Oc3ccc(OC)c(-c4cnc([C@@H]5CCCN5C(=O)C(NC(=O)OC)c5ccccc5)[nH]4)c3)cc2)c[nH]1)c1ccccc1 (stereo partly shown)
# output > 98.4 µM

# input // CC50 lookup, key: `Cc1cccc(CC(=O)N2CCC[C@H]2c2nc(-c3cccc(Oc4ccc(-c5cnc([C@@H]6CCCN6C(=O)Cc6cccc(C)c6)[nH]5)cc4)c3)c[nH]2)c1`
# output > 31.5 µM

###

Test: Cytotoxicity (Huh-7)
Assay type: cell-based
Conditions: human, Huh-7 cells
Below is a list of entries, each paired with its recorded CC50 value.

[
  {
    "MOLECULE": "CN(C)CCC(=O)N1CCC[C@H]1c1nc(-c2cccc(Oc3ccc(-c4cnc([C@@H]5CCCN5C(=O)CCN(C)C)[nH]4)cc3)c2)c[nH]1 [Example 41]",
    "CC50": "> 31.5 µM"
  },
  {
    "MOLECULE": "O=C(c1ccc(F)cc1)N1CCC[C@H]1c1nc(-c2cccc(Oc3ccc(-c4cnc([C@@H]5CCCN5C(=O)c5ccc(F)cc5)[nH]4)cc3)c2)c[nH]1 [Example 34]",
    "CC50": "> 31.5 µM"
  }
]

# input // CC50 lookup, key: COC(=O)N[C@H](C(=O)N1CCC[C@H]1c1ncc(-c2ccc(Oc3cccc(-c4cnc([C@@H]5CCCN5C(=O)[C@@H](NC(=O)OC)C(C)(C)C)[nH]4)c3)cc2)[nH]1)C(C)(C)C [Example 40]
# output 12.6 µM

# input // CC50 lookup, key: O=C(C(=O)N1CCC[C@H]1c1nc(-c2cccc(Oc3ccc(-c4cnc([C@@H]5CCCN5C(=O)C(=O)c5ccccc5)[nH]4)cc3)c2)c[nH]1)c1ccccc1 [Example 20]
# output > 31.5 µM
